Just for reference, patent US7772180B2 is where these values come from.

target: HCV NS3/4A protease complex, BMS strain (UniProt P27958, species not given/STRAIN_BMS); construct: other: NS3/4A BMS strain; activity range class; numeric values, unit not given; said of H77 and J4L6S; fused on or other part: A three-lysine solubilising tail at the C-terminus of NS4A; A His tag is implied by the pET21b vector and Ni-NTA purification; Both are printed for the H77 and J4L6S constructs and apply to BMS by inference; experiment: FRET peptide assay to monitor HCV NS3/4A proteolytic activity (BMS strain); assay type: biochemical, Hepatitis C virus (genotype 1a); conditions: read-out: HCV Protease (IC50); NS3/4A BMS strain; activity range class
Sequence (P27958 1027-1657, change not shown, one chain of several): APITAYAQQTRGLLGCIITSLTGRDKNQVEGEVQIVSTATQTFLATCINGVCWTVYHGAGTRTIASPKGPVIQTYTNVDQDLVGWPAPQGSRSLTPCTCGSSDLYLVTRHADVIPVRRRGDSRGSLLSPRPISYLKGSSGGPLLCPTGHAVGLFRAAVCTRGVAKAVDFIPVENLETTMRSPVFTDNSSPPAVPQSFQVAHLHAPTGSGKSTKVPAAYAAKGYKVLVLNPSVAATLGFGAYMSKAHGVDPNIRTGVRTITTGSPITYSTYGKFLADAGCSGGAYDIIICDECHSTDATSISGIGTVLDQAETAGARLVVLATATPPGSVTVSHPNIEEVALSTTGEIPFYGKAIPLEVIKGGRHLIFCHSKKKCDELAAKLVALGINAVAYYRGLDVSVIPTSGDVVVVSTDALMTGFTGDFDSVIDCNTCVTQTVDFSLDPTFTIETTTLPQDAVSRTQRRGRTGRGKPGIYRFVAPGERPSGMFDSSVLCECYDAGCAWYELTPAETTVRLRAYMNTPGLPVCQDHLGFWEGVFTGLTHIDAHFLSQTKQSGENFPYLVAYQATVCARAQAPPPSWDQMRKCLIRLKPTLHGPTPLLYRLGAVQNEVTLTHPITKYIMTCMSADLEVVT
Give measured IC50 for each item. Keep answers brief.

Answer with the recorded IC50 of C=C[C@@H]1C[C@]1(NC(=O)[C@@H]1C[C@@H](Oc2nccc3cc(OC)ccc23)CN1C(=O)C(Nc1ccc(OC)nc1)C(C)(C)C)C(=O)NS(=O)(=O)C1CC1 (single isomer, unassigned) [407 first isomer] only.
0.6 to 20 nM

Answer with the recorded IC50 of C=C[C@@H]1C[C@]1(NC(=O)[C@@H]1C[C@@H](Oc2ncc(OC)c3ccc(Cl)cc23)CN1C(=O)C(Nc1cc(C)cc(C)n1)C(C)(C)C)C(=O)NS(=O)(=O)C1CC1 (single isomer, unassigned) [22 first isomer] only.
0.6 to 20 nM

Answer with the recorded IC50 of C=C[C@@H]1C[C@]1(NC(=O)[C@@H]1C[C@@H](Oc2ncc(OC)c3ccc(Cl)cc23)CN1C(=O)[C@@H](Nc1ccc(S(=O)(=O)NCC)cc1)C(C)(C)C)C(=O)NS(=O)(=O)C1CC1 [223 first isomer] only.
0.6 to 20 nM

Answer with the recorded IC50 of C=C[C@@H]1C[C@]1(NC(=O)[C@@H]1C[C@@H](Oc2ncc(OC)c3ccc(Cl)cc23)CN1C(=O)C(C)Nc1nsnc1OCC)C(=O)NS(=O)(=O)C1CC1 (stereo partly drawn) only.
> 200 nM

Answer with the recorded IC50 of C=C[C@@H]1C[C@]1(NC(=O)[C@@H]1C[C@@H](Oc2ncc(OC)c3ccc(Cl)cc23)CN1C(=O)C(CC)Nc1nsnc1OC)C(=O)NS(=O)(=O)C1CC1 (stereo partly drawn) only.
0.6 to 20 nM

Answer with the recorded IC50 of C=C[C@@H]1C[C@]1(NC(=O)[C@@H]1C[C@@H](Oc2nccc3cc(OC)ccc23)CN1C(=O)[C@@H](Nc1nc(C)cc(C)n1)C(C)C)C(=O)NS(=O)(=O)C1CC1 [6 second isomer] only.
0.6 to 20 nM

Answer with the recorded IC50 of C=C[C@@H]1C[C@]1(NC(=O)[C@@H]1C[C@@H](Oc2nc(OC)cc3cc(OC)ccc23)CN1C(=O)C(Nc1ccccc1)C(C)(C)C)C(=O)NS(=O)(=O)C1CC1 (single isomer, unassigned) [20 first isomer] only.
0.6 to 20 nM

Answer with the recorded IC50 of C=C[C@@H]1C[C@]1(NC(=O)[C@@H]1C[C@@H](Oc2ncc(OC)c3ccc(Cl)cc23)CN1C(=O)[C@@H](Nc1ccccc1F)C(C)(C)C)C(=O)NS(=O)(=O)C1CC1 [234 first isomer] only.
20 to 200 nM

Answer with the recorded IC50 of C=C[C@@H]1C[C@]1(NC(=O)[C@@H]1C[C@@H](Oc2ncc(OC)c3ccc(Cl)cc23)CN1C(=O)[C@H](Nc1ccc(C#N)cc1)C(C)(C)C)C(=O)NS(=O)(=O)C1CC1 [205 second isomer] only.
> 200 nM

Answer with the recorded IC50 of C=C[C@@H]1C[C@]1(NC(=O)[C@@H]1C[C@@H](Oc2nc(N(C)C)cc3cc(OC)ccc23)CN1C(=O)C(Nc1cc(C)cc(C)n1)C(C)C)C(=O)NS(=O)(=O)C1CC1 (stereo partly drawn) only.
0.6 to 20 nM

Answer with the recorded IC50 of C=C[C@@H]1C[C@]1(NC(=O)[C@@H]1C[C@@H](Oc2nccc3cc(OC)ccc23)CN1C(=O)[C@H](Nc1ccccn1)C(C)(C)C)C(=O)NS(=O)(=O)C1CC1 [12 second isomer] only.
20 to 200 nM

Answer with the recorded IC50 of C=C[C@@H]1C[C@]1(NC(=O)[C@@H]1C[C@@H](Oc2ncc(OC)c3ccc(Cl)cc23)CN1C(=O)C(Nc1cccc(C(=O)NC)c1)C(C)(C)C)C(=O)NS(=O)(=O)C1CC1 (stereo partly drawn) [Compound 202A] only.
0.6 to 20 nM

Answer with the recorded IC50 of C=C[C@@H]1C[C@]1(NC(=O)[C@@H]1C[C@@H](Oc2ncc(OC)c3ccc(Cl)cc23)CN1C(=O)[C@H](Nc1cccc(C(=O)OC(C)C)c1)C(C)(C)C)C(=O)NS(=O)(=O)C1CC1 [231 second isomer] only.
> 200 nM

Answer with the recorded IC50 of C=C[C@@H]1C[C@]1(NC(=O)[C@@H]1C[C@@H](Oc2ncc(OC)c3ccc(Cl)cc23)CN1C(=O)[C@H](Nc1ccc(S(=O)(=O)NC(C)(C)C)cc1)C(C)(C)C)C(=O)NS(=O)(=O)C1CC1 [214 second isomer] only.
> 200 nM

Answer with the recorded IC50 of C=C[C@@H]1C[C@]1(NC(=O)[C@@H]1C[C@@H](Oc2ncc(OC)c3ccc(Cl)cc23)CN1C(=O)[C@H](Nc1cccc(S(=O)(=O)NC(C)(C)C)c1)C(C)(C)C)C(=O)NS(=O)(=O)C1CC1 [206 second isomer] only.
> 200 nM

Answer with the recorded IC50 of C=C[C@@H]1C[C@]1(NC(=O)[C@@H]1C[C@@H](Oc2nccc3cc(OC)ccc23)CN1C(=O)[C@@H](Nc1ccccc1)C(C)(C)C)C(=O)NS(=O)(=O)C1CC1 [15 first isomer] only.
0.6 to 20 nM

Answer with the recorded IC50 of C=C[C@@H]1C[C@]1(NC(=O)[C@@H]1C[C@@H](Oc2nccc3cc(OC)ccc23)CN1C(=O)C(Nc1ccc(C(F)(F)F)cn1)C(C)C)C(=O)NS(=O)(=O)C1CC1 (single isomer, unassigned) only.
20 to 200 nM

Answer with the recorded IC50 of C=C[C@@H]1C[C@]1(NC(=O)[C@@H]1C[C@@H](Oc2ncc(OC)c3ccc(Cl)cc23)CN1C(=O)[C@H](Nc1ccc(C(=O)O)cc1)C(C)(C)C)C(=O)NS(=O)(=O)C1CC1 [209 second isomer] only.
> 200 nM
